System: HCV 1b-377-neo replicon cells
Test: HCV Replicon assay, HCV 1b-377-neo replicon cells
Type: cell-based, HCV 1b genotype
Settings: Hepatitis C virus, Table 2, read-out: Range (EC50 against HCV 1b)
testReadout: EC50

Query block: Which measured EC50 value corresponds to COC(=O)N[C@@H](C(=O)N1CCC[C@H]1c1ncc(-c2ccc(-c3ccc(-c4cnc([C@@H]5CCCN5C(=O)[C@@H](c5ccccc5)N(C)C)[nH]4)cc3C)cc2)[nH]1)c1ccccc1 [Example 126] ?
Result block: 0.001 to 0.999 nM

Query block: Which measured EC50 value corresponds to COC(=O)N[C@@H](C(=O)N1CCC[C@H]1c1ncc(-c2cnc(-c3ccc(-c4[nH]c([C@@H]5CCCN5C(=O)[C@H](NC(=O)OC)c5ccccc5)nc4C(F)(F)F)cc3)nc2)[nH]1)c1ccccc1 [Example J46] ?
Result block: 0.001 to 0.999 nM

Query block: Which measured EC50 value corresponds to Cc1cc(-c2cnc([C@@H]3CCCN3C(=O)[C@@H](c3ccccc3)N(C)C)[nH]2)ccc1-c1ccc(-c2cnc([C@@H]3CCCN3C(=O)[C@@H](c3ccccc3)N(C)C)[nH]2)cc1C [Example 121] ?
Result block: 0.001 to 0.999 nM

Query block: Which measured EC50 value corresponds to COC(=O)N[C@@H](C(=O)N1CCC[C@H]1c1ncc(-c2ccc(-c3ccc(-c4cnc([C@@H]5CCCN5C(=O)[C@H](NC(=O)OC)c5ccccc5)[nH]4)nn3)cc2)[nH]1)c1ccccc1 [Example 152j-10] ?
Result block: 1 to 99 nM

Query block: Which measured EC50 value corresponds to CN(C)[C@@H](C(=O)N1CSC[C@H]1c1ncc(-c2ccc(-c3ccc(-c4cnc([C@@H]5CSCN5C(=O)[C@@H](c5ccccc5)N(C)C)[nH]4)cc3)cc2)[nH]1)c1ccccc1 [Example 148] ?
Result block: 1 to 99 nM
